Source: ChEMBL document CHEMBL1135281

# log10 IC50 per entry
# System Under Test: Acetylcholine receptor subunit delta (Homo sapiens)
# Sequence (Q07001 whole entry): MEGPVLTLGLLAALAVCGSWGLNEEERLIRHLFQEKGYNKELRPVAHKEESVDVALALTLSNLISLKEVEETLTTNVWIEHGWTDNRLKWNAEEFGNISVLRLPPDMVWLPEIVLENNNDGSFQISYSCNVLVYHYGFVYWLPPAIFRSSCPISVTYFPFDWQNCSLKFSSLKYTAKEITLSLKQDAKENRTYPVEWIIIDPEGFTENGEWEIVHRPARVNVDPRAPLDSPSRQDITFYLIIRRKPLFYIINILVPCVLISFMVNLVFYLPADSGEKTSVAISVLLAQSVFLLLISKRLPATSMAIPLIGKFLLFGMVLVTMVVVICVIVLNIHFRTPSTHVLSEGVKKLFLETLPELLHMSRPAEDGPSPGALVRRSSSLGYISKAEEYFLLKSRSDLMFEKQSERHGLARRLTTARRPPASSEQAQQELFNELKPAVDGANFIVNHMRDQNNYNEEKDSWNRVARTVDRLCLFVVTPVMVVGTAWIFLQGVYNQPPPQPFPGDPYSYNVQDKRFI
# Protocol: Compound was evaluated for inhibitory activity against human embryonic muscle type Nicotinic acetylcholine receptor specifically delta-subunit expressed in TE-671 cell (at holding potential -100 mV)
# Type: cell-based
// stored as log10 of IC50 expressed in µM

// below: answered molecules
| Molecule | Recorded Value |
| --- | --- |
| CCCC(=O)N[C@@H](Cc1ccc(O)cc1)C(=O)NCCCCCCCCCCCN | -0.34 |
| CCCC(=O)N[C@@H](Cc1ccc(O)cc1)C(=O)NCCCCCCCCN | 0.70 |
| CCCC(=O)N[C@@H](Cc1ccc(O)cc1)C(=O)NCCCCCCCCCN | 1.18 |
| CCCC(=O)N[C@@H](Cc1ccc(O)cc1)C(=O)NCCCCCCCCCCCCN | -0.03 |
| CCCC(=O)N[C@@H](Cc1ccc(O)cc1)C(=O)NCCCNCCCCNCCCN [PHILANTHOTOXIN 343] | 1.88 |

Qu. Which log10 IC50 reading was recorded for the molecule CCCC(=O)N[C@@H](Cc1ccc(O)cc1)C(=O)NCCCCCCCN ?
Ans. 0.74
